Tested on: human prostate cancer cells (PC3)
Assay: MTT cytotoxicity assay, PC3
Assay type: cell-based
Conditions: 72 h exposure, means of three experiments
Measurement Type: IC50 (µM)
Enter your answer as a number in µM; do not include the unit.

Short answer for Cc1nc2sc3c(c2c(C)c1Br)NC(c1ccccc1Cl)NC3=O (stereo not shown) [Compound 7a] : IC50 was 24.2

###

inhibition at 50 µM: recorded values
Target: pim-1 kinase (Homo sapiens, UniProt P11309)
Construct: The kinase used was cloned, expressed and purified using proprietary methods
Sequence (P11309 whole entry): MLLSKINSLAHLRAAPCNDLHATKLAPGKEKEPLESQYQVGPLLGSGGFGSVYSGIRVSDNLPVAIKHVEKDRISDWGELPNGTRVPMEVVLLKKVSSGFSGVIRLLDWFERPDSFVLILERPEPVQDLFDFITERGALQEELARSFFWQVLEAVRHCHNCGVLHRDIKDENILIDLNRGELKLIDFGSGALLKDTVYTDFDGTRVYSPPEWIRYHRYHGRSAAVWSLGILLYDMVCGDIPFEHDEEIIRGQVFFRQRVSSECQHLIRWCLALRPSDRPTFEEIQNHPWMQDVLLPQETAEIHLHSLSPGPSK
Assay: Pim-1 kinase radioisotope (33P-ATP) assay, Kinexus compound profiling service
Type: biochemical
Conditions: test compounds at 50 μM
Enter your answer as a number in %; do not include the unit.

Some molecules with known inhibition at 50 µM results, for comparison:
Cc1nc2sc3c(c2c(C)c1Br)NC(c1ccccc1Cl)NC3=O (stereo not drawn): 81
Cc1nc2sc3c(=O)[nH]c(-c4ccccc4O)nc3c2c(C)c1Br: 85
Cc1nc2c(sc3nc(C)c(Br)c(C)c32)c(=O)[nH]1: 51
Cc1nc2sc(C(N)=O)c(N)c2c(C)c1Br: 16
Cc1nc2sc3c(=O)[nH]c(C(F)(F)F)nc3c2c(C)c1Br: 96

Short answer for "Cc1nc2sc3c(=O)[nH]c(CC(=O)O)nc3c2c(C)c1Br" : inhibition at 50 µM was 19

Short answer for Cc1nc2sc3c(c2c(C)c1Br)NC(c1ccccc1F)NC3=O (stereo not drawn) : inhibition at 50 µM was 66

Short answer for "Cc1nc2sc3c(=O)[nH]cnc3c2c(C)c1Br" : inhibition at 50 µM was 37

Short answer for "Cc1nc2sc3c(=O)[nH]c(-c4ccccc4C(F)(F)F)nc3c2c(C)c1Br" : inhibition at 50 µM was 54
